Overview of recorded Plant response rating, Morningglory for various compounds
# Tested on: morningglory
# assayNotes: Test A pre-/postemergence herbicide test
# Format: in vivo, Ipomoea spp.
# assayContext: Postemergence, 2000 g ai/ha; 0 to 100 scale, 0 no effect, 100 complete control

structureNotation	assayTarget	result
C=Cn1nc(C(C)(C)C)cc1C(=O)Nc1cccc(C(=O)NCC)c1	morningglory	25
Cn1nc(C(C)(C)C)cc1C(=O)Nc1cccc2c1CCC2=NO	morningglory	0
C=CCN(C)C(=O)c1cccc(NC(=O)c2cc(C(C)(C)C)nn2CC)c1	morningglory	50
CCNC(=O)c1cccc(NC(=O)c2sc(C(C)(C)C)nc2C)c1	morningglory	75
CCCCNS(=O)(=O)c1cccc(NC(=O)c2cc(C(C)(C)C)nn2C)c1	morningglory	0
CCn1nc(C(C)(C)C)cc1C(=O)Nc1cccc(C(=O)OC(C)(C)C)c1	morningglory	0
CCOC(=O)c1cccc(NC(=O)c2cc(C(C)(C)C)nn2CC)c1OC	morningglory	0
C=Cn1nc(C(C)(C)C)cc1C(=O)Nc1cccc(C(C)=O)c1	morningglory	20

In: Find Plant response rating, Morningglory (morningglory) for the entry `CCN(CC)C(=O)c1cc(NC(=O)c2cc(C(C)(C)C)nn2CC)ccc1F`
Out: 10

In: Let us now turn to `CCn1nc(C(C)(C)C)cc1C(=O)Nc1nc(OC)cc(OC)n1`
Out: 10

----------
# Tested on: barnyardgrass
# assayNotes: Test B pre-/postemergence herbicide test
# Format: in vivo, Echinochloa crus-galli
# assayContext: Postemergence, 500 g ai/ha; scale 0 (no effect) to 100 (complete control)
# Protocol: […] At the same time, plants selected from these crop and weed species and also blackgrass (Alopecurus myosuroides Huds.), wheat (Triticum aestivum L.) and wild oat (Avena fatua L.) were treated with postemergence applications of test chemicals formulated in the same manner. […] Treated plants and controls were maintained in a greenhouse for 13 to 15 days, after which time all species were compared to controls and visually evaluated. […]
Threshold 20: Barnyardgrass plant response rating strictly smaller gives Y, otherwise N.

Example results:
structureNotation	answerLabel
CCN(CC)C(=O)c1cccc(NC(=O)c2nn(C(C)(C)C)nc2C)n1	Y
CCc1nn(C(C)(C)C)nc1C(=O)Nc1cccc(C(=S)N(C)C)c1	N
Cc1nn(C(C)C)nc1C(=O)Nc1cc(C(=O)N(C)C)ccc1F	Y
Cc1nn(C(C)(C)C)nc1C(=O)Nc1cc(C(=O)N(C)C)ccn1	N

In: Does the reported Barnyardgrass plant response rating of the following compound sit strictly below 20? `C=Cc1nn(C(C)(C)C)nc1C(=O)Nc1cccc(C(=O)N(C)C)c1`
Out: N

In: Then this compound: `C=CCNC(=O)c1ccc(F)c(N(C(C)=O)C(=O)c2cc(C(C)(C)C)nn2CC)c1`
Out: N

In: Same question for `CCc1nn(C(C)C)nc1C(=S)Nc1cccc(C(=S)N(C)C)c1` please.
Out: Y

----------
# Tested on: velvetleaf
# assayNotes: Test B pre-/postemergence herbicide test
# Assay type: in vivo, Abutilon theophrasti
# assayContext: 500 g ai/ha; visual rating 0-100, 0 no effect, 100 complete control; preemergence
endpointLabel: Plant response rating, Velvetleaf
Give only the figure.

// worked examples, Plant response rating, Velvetleaf included
molecule	resultNumber
CCc1nc(C(C)(C)C)sc1C(=O)Nc1cccc(C(=O)NCC(C)C)c1 [Compound 211]	10
CCNC(=O)c1cccc(NC(=O)c2sc(C(C)(C)C)nc2C)c1 [Compound 198]	60
CCn1nc(C(C)(C)C)cc1C(=O)Nc1cccc([S+]([O-])C(F)(F)F)c1 (stereo not shown) [Compound 135]	50

In: Identify the measured Plant response rating, Velvetleaf of CCn1nc(C(C)(C)C)cc1C(=O)Nc1cccc(C(=O)OC(C)(C)C)c1 [Compound 98] for velvetleaf.
Out: 0
